Target desc: human ACC2 (Homo sapiens (Human), UniProt O00763)
Sequence (O00763 129-2458): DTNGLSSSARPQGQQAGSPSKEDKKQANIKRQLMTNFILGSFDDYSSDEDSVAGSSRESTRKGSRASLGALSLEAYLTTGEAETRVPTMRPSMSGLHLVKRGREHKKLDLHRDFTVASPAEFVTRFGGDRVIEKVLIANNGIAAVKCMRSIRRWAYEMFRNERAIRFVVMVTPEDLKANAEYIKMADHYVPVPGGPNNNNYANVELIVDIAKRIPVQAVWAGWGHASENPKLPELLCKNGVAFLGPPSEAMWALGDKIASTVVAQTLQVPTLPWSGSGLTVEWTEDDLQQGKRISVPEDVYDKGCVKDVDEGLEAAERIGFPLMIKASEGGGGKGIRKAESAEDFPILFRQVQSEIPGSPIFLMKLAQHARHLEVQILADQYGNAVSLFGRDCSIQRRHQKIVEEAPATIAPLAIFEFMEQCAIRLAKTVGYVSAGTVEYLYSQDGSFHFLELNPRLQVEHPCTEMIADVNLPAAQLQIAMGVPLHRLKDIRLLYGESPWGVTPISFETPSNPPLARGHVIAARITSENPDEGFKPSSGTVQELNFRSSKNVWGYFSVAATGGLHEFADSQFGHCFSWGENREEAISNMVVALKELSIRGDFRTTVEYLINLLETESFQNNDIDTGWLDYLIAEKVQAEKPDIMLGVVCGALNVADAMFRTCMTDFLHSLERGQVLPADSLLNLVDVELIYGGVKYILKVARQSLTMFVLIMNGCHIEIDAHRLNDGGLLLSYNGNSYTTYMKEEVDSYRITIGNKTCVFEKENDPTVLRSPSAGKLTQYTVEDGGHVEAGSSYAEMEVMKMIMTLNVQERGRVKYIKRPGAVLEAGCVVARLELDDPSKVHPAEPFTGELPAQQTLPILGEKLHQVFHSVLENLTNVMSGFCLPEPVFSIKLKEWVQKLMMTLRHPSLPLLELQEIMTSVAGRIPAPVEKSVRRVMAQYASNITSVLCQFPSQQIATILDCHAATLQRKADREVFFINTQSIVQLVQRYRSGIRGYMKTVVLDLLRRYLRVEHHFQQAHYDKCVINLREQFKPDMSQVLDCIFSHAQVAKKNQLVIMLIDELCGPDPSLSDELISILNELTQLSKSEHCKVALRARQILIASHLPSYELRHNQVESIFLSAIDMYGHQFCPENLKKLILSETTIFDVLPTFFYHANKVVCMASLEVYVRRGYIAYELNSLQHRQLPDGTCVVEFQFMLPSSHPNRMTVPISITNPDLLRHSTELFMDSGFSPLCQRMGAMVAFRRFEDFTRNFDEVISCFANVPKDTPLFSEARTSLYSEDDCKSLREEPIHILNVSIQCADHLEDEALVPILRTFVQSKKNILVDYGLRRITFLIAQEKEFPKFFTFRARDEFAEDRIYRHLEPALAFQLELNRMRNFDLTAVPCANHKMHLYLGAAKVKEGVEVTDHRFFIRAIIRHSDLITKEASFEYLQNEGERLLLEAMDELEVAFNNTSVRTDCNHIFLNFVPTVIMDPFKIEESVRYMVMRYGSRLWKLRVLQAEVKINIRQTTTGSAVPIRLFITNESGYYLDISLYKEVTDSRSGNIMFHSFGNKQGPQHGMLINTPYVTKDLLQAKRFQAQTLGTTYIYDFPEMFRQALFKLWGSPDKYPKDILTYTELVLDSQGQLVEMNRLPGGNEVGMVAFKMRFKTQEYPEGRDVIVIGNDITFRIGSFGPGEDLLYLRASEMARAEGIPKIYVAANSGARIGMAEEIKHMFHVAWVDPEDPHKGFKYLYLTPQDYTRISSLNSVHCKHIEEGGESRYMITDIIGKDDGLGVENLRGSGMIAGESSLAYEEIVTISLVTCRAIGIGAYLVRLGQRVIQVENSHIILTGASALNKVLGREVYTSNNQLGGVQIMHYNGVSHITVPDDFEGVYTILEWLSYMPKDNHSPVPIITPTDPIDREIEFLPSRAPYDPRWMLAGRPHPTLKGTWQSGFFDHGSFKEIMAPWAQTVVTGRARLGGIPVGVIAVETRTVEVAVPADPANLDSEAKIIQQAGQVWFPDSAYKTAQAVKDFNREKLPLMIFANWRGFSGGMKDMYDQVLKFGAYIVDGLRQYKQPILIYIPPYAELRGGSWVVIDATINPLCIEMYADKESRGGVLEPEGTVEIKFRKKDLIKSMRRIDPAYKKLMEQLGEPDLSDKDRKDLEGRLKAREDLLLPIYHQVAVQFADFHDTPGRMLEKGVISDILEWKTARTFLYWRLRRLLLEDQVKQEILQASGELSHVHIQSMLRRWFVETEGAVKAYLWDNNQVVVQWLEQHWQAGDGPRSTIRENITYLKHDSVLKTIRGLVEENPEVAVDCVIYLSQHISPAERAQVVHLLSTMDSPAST
Experiment: ACC2 assay (spectrophotometric 384 well assay, NADH-linked kinetic method)
Format: biochemical
Reported conditions: hACC2 construct lacking 128 N-terminal amino acids; coupled lactate dehydrogenase/pyruvate kinase reaction, 340 nm, 25° C.

{"Compound": "CC(=O)N[C@@H](C)c1ccc(O[C@@H]2CCN(c3nc(N4CCC[C@@H]4C)ncc3F)C2)cc1", "Target desc": "human ACC2 (Homo sapiens (Human), UniProt O00763)", "IC50": "157 nM"}
{"Compound": "CC(=O)N[C@@H](C)c1ccc(O[C@@H]2CCN(c3nc(N4CCCOCC4)ncc3F)C2)cc1", "Target desc": "human ACC2 (Homo sapiens (Human), UniProt O00763)", "IC50": "125 nM"}
{"Compound": "CC(=O)N[C@@H](C)c1ccc(O[C@@H]2CCN(c3ccnc(N(C)CC(F)(F)F)n3)C2)cc1", "Target desc": "human ACC2 (Homo sapiens (Human), UniProt O00763)", "IC50": "89 nM"}
{"Compound": "CC(=O)N[C@@H](C)c1ccc(O[C@@H]2CCN(c3ncnc(OCC(C)(C)O)c3Cl)C2)cc1", "Target desc": "human ACC2 (Homo sapiens (Human), UniProt O00763)", "IC50": "81 nM"}
{"Compound": "CC(=O)N[C@@H](C)c1ccc(O[C@@H]2CCN(c3nc(N(C)CCC(F)(F)F)ncc3Cl)C2)cc1", "Target desc": "human ACC2 (Homo sapiens (Human), UniProt O00763)", "IC50": "110 nM"}

Reference for the values: patent US8962641B2
